The entries that follow carry pIC50 values tested on Mast/stem cell growth factor receptor Kit (Homo sapiens), drawn from several published reports.
pIC50: −log10 of the molar value.

OCCOc1cccc(Cc2c[nH]c3ncc(-c4ccsc4)cc23)c1 ... ≥ 5.00
O=C(O)/C=C/c1cccc(-c2cnc3[nH]cc(C(=O)c4cccc(C(F)(F)F)c4)c3c2)c1 ... ≥ 5.00
CCc1cc(CN2CCN(C)CC2)cc(NC(=O)c2ccc3c(c2)CN(c2cncnc2)CC3C)c1 (centres unmarked) ... < 5.00
COc1cccc(-c2cnc3[nH]ccc3c2)c1 ... ≥ 5.00
CCCS(=O)(=O)Nc1ccc(F)c(C(=O)c2c[nH]c3ncc(-c4cccc(C(N)=O)c4)cc23)c1F ... ≥ 5.00
COCCOc1ccc(F)c(C(O)c2c[nH]c3ncc(Br)cc23)c1F (centres unmarked) ... ≥ 5.00

q: Look at this compound and give its reported pIC50. FC(F)(F)Oc1cccc(Nc2c[nH]c3ncccc23)c1
a: ≥ 5.00

q: One more compound: CCc1ccc(Nc2ncc(Cc3c[nH]c4ncc(C)cc34)cn2)cc1
a: > 8.00

q: Would you mind doing O=C(c1cccc(OC(F)F)c1)c1c[nH]c2ncc(-c3ccccc3)cc12 as well?
a: ≥ 5.00

q: Another: Cc1cnc2[nH]cc(C(=O)c3c(F)ccc(NS(=O)(=O)C4CCCC4)c3F)c2c1
a: ≥ 5.00

q: Same thing, different compound: CC(C)CS(=O)(=O)Nc1ccc(F)c(C(=O)c2c[nH]c3ncc(Cl)cc23)c1F
a: ≥ 5.00

q: Queued: Cc1ccc(S(=O)(=O)Nc2ccc(F)c(C(=O)c3c[nH]c4ncc(Cl)cc34)c2F)s1
a: ≥ 5.00

q: And then COc1ccc(C(=O)c2c[nH]c3ncc(Br)cc23)cc1 , what is it?
a: ≥ 5.00

q: Same thing, different compound: COc1cc(OC)cc(C(=O)c2c[nH]c3ncc(-c4ccccc4)cc23)c1
a: ≥ 5.00

q: Now the same for CC1CN(c2cccnc2)Cc2cc(C(=O)Nc3cc(CN4CCN(C)CC4)cc(C(F)(F)F)c3)ccc21 (centres unmarked)
a: < 5.00

q: Also O=C(NCc1cccs1)c1cc2n(c1)CCc1c(NC(=O)c3cccc(F)c3)n[nH]c1-2 ?
a: 5.57

q: Now this one: Cn1cc(-c2cnc3[nH]cc(C(=O)c4c(Cl)ccc(OCC(F)(F)F)c4Cl)c3c2)cn1
a: ≥ 5.00
